The measurements presented in this section are drawn from patent US20220348668A1.

- Subject Of Test: T1, CD123 (protein in solution in the Octet affinity assay) (human, UniProt P26951 19-305, limits assumed)
- T1 construct: also called IL-3Rα; Interleukine-3 Receptor alpha
- T1 sequence (looked up): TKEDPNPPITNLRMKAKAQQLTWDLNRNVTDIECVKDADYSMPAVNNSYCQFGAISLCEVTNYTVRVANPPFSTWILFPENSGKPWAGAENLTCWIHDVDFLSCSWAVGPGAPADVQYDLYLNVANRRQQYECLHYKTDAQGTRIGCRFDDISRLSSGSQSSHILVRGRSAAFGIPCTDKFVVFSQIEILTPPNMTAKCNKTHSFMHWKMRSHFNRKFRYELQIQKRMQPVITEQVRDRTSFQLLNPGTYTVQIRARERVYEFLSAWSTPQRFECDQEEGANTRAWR
- Method Summary: BLI (Octet), antibody on streptavidin biosensor, CD123 50 nM
Quantity Name: Response
API note: the answer field is a bare number with no unit suffix.

See these solved cases before continuing.
Q) For the binder 11B6E6 (antibody, V domains shown, Mouse hybridoma monoclonal antibody; also called AB3) VH: QVKLEESGPGLVAPSQSLSITCTVSGFSLTSYDISWIRQPPGKGLEWLGVIWTGGGTNYNSAFMSRLSISKDNSKSQVFLKMFSLQTDDTAIYYCVRAHGYYFAMDYWGQGTSVTVSS VL: DIVLTQSPSSLAVSAGEKVTMRCKSSQSLLNSSTRKNYLAWYQQKPGQSPKLLIYWASTRESGVPDRFTGSGSGTDFTLTISSVQAEDLAVYYCKQSYNLFTFGSGTKLEIKR , give its reported Response.
A) 0.316

Q) Give the value of Response reported for the following: 14G12D7 (antibody, V domains shown, Mouse hybridoma monoclonal antibody; also called AB4) VH: EVQLQESGPGLVKPSQSLSLTCTVTGYSVTSDYAWNWIRQFPGNKLEWMGYIIYSGTTSYNPSLKSRISITRDTSKNQFFLQLNSVTTEDTATYYCTRGVDYWGQGTTLTVSS VL: DIVLTQSPAIMSASPGEKVTMTCRASSSVRSSYLHWYQQKSGASPKLWIYSTSNLASGVPARFSGSGSGTSYSLTISSVEAEDAATYYCLQFSGYPFTFGGGTKLEIKR
A) 0.221

Q) For 18B4D5 (antibody, V domains shown, Mouse hybridoma monoclonal antibody; The tie uses 'at least 85% identity' wording; also called AB1; antiCD123 B4D5) VH: EVKLQESGPGLVKPSQSLSLTCTVTGYSITSDYTWNWIRQFPGNKLEWMGYISFSGSTSYNPSLKSRLSITRDTSKNQFFLQLNSVTTEDTATYYCARGLDYWGQGTTLTVSS VL: DIVMTQSPAIMSASLGERVTMTCTASSSISSSYLYWYQQKPGSSPKLWIYSTSNLASGVPARFSGSGSGTSYSLTISSMEAEDAATYYCHQLHRSPWTFGGGTKLEIKR , write its Response.
A) 0.697

Would you kindly look at the next entry?
Q) Report Response for 17F7B2 (antibody, V domains shown, Mouse hybridoma monoclonal antibody; also called AB2) VH: EVQLQQSGTVLARPGASVKMSCKASGYSFTSYWMHWVKQRPGQGLEWIGAFYPGKSDTTYNQKFKGKAKLTAVTSASTAYMELSSLTNEDSAVYYCTKGYRYDWFAYWGQGTLVTVSA VL: DVVMTQTPLSLPVSLGDQASISCRSSQSLVHSNGITYLHWYLQKPGQSPKLLIYKVSNRFSGVPDRFSGSGSGTDFTLKISRVEAEDLGVYFCSQNTHVPFTFGSGTKLEIKR
A) 0.507
